Please respond with reported Activity for every item in the list.
System: Escherichia coli
assay details: Antimicrobial activity against ESBL producing Escherichia coli isolated from patient bloodstream assessed as resistant isolate by Etest method
Format: functional
Field format: number, assumed %, no unit text.

Exercise: Return the recorded Activity value; entry: NCC[C@H](O)C(=O)N[C@@H]1C[C@H](N)[C@@H](O[C@H]2O[C@H](CN)[C@@H](O)[C@H](O)[C@H]2O)[C@H](O)[C@H]1O[C@H]1O[C@H](CO)[C@@H](O)[C@H](N)[C@H]1O [AMIKACIN]
Solution: 0

Exercise: Return the recorded Activity value; entry: C[C@@H](O)[C@H]1C(=O)N2C(C(=O)O)=C(SCCNC=N)C[C@H]12 [IMIPENEM ANHYDROUS]
Solution: 0

Exercise: Return the recorded Activity value; entry: O=C(O)c1cn(C2CC2)c2cc(N3CCNCC3)c(F)cc2c1=O [CIPROFLOXACIN]
Solution: 92.2

Exercise: Return the recorded Activity value; entry: C[C@@H](O)[C@H]1C(=O)N2C(C(=O)O)=C(S[C@@H]3CN[C@H](C(=O)N(C)C)C3)[C@H](C)[C@H]12 [MEROPENEM]
Solution: 0

Exercise: Return the recorded Activity value; entry: C[C@H]1COc2c(N3CCN(C)CC3)c(F)cc3c(=O)c(C(=O)O)cn1c23.C[C@H]1COc2c(N3CCN(C)CC3)c(F)cc3c(=O)c(C(=O)O)cn1c23.O [LEVOFLOXACIN]
Solution: 92.2
